Readout Kind: melting point (°C)
Field format: number, assumed °C, no unit text.

Smiles Notation: Cn1cc(-c2cc(-c3ccncc3)ccn2)n(-c2ccc(C(C)(C)C#N)cc2)c1=O
Unit: °C
melting point: 226
//
Smiles Notation: Cn1cc(-c2cc(-c3cnc4ccccc4c3)ccn2)n(-c2ccc(C(C)(C)C#N)cc2)c1=O
Unit: °C
melting point: 228
//
Smiles Notation: O=c1[nH]cc(-c2cc(-c3cnc4ccccc4c3)ccn2)n1-c1ccc(N2CCNCC2)c(C(F)(F)F)c1
Unit: °C
melting point: 155

Please find the next compound below.
Name the recorded melting point of the item Cn1cc(-c2cc(-c3cnc(N)c(C(F)(F)F)c3)ccn2)n(-c2ccc(C(C)(C)C#N)cc2)c1=O in your answer.
195

---

- Test System: PI3Kalpha (Homo sapiens, UniProt P42336)
- Sequence (P42336 whole entry): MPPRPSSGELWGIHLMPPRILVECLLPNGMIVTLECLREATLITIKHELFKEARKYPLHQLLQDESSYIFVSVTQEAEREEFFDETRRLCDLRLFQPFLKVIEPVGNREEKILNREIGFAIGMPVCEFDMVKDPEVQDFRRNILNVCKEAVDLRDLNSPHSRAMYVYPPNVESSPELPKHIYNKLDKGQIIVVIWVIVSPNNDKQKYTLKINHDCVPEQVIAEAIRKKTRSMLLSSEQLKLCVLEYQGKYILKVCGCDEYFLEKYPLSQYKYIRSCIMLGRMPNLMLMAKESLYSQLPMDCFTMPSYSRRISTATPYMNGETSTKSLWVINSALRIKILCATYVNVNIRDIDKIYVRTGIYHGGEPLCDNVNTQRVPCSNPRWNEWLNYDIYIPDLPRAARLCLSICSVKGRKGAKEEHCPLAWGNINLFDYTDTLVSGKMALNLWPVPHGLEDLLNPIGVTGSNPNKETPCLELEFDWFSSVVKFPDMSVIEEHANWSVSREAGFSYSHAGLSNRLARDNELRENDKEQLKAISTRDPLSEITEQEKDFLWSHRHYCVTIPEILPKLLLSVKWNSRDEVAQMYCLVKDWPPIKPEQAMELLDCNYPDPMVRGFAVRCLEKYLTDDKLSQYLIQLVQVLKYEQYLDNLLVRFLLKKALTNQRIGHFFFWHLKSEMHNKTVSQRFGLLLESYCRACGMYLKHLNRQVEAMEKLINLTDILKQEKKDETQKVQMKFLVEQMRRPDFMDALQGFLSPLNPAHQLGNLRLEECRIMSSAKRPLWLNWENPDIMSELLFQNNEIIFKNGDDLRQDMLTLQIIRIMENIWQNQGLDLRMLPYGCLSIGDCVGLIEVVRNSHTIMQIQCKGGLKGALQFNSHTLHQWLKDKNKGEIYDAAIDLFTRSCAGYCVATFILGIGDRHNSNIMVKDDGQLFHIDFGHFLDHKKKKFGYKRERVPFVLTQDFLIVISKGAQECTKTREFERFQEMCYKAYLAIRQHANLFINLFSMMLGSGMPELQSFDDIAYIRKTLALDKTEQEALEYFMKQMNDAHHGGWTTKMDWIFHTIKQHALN
- Sequence (P27986 whole entry partner): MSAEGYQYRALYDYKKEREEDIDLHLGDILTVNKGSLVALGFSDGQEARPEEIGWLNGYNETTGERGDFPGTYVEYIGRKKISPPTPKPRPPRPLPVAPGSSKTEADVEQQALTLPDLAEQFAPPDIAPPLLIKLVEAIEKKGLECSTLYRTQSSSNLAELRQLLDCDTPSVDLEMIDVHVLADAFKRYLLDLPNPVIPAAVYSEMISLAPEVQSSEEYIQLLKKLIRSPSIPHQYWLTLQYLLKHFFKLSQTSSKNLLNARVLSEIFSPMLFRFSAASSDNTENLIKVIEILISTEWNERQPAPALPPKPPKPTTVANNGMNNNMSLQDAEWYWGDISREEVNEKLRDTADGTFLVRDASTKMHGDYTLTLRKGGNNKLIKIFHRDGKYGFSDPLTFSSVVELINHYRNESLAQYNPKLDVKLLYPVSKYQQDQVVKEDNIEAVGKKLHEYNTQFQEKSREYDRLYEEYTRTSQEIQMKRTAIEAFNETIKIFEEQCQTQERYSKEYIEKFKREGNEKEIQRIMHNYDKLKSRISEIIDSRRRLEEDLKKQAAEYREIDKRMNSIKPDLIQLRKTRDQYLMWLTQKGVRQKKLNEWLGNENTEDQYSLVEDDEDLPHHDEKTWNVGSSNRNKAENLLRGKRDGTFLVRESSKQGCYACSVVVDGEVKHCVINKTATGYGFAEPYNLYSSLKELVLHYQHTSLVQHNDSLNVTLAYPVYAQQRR
- Experiment Notes: Biochemical PI3Kalpha assay (neomycin SPA, lipid phosphorylation)
- Condition Description: human recombinant GST-PI3K
pIC50: −log10 of the molar value.
Readout Kind: pIC50

Worked examples, 5 compounds total:
Smiles Notation: Cn1cc(-c2cc(-c3cnc(N)c(C#N)c3)ccn2)n(-c2ccc(C(C)(C)C#N)cc2)c1=O
Test System: PI3Kalpha (Homo sapiens, UniProt P42336)
Value: 5.00 to 7.00

Smiles Notation: CC(=O)N1CCN(c2ccc(-n3c(-c4cc(-c5cnc6[nH]ccc6c5)ccn4)cn(C)c3=O)cc2C(F)(F)F)CC1
Test System: PI3Kalpha (Homo sapiens, UniProt P42336)
Value: 5.00 to 7.00

Smiles Notation: COc1ccc(-c2ccnc(-c3cn(C)c(=O)n3-c3ccc(N4CCNCC4)c(C(F)(F)F)c3)c2)cn1
Test System: PI3Kalpha (Homo sapiens, UniProt P42336)
Value: 5.00 to 7.00

Smiles Notation: Cn1cc(-c2cc(-c3cnc4[nH]ccc4c3)ccn2)n(-c2cc(F)cc(C#N)c2)c1=O
Test System: PI3Kalpha (Homo sapiens, UniProt P42336)
Value: 5.00 to 7.00

Smiles Notation: Cn1cc(-c2cc(-c3ccc(N)nc3)ccn2)n(-c2ccc(N3CCNCC3)c(C(F)(F)F)c2)c1=O
Test System: PI3Kalpha (Homo sapiens, UniProt P42336)
Value: 5.00 to 7.00

Please report pIC50 with PI3Kalpha (Homo sapiens, UniProt P42336) for item Cn1cc(-c2cc(-c3cnc(N)c(C(F)(F)F)c3)ccn2)n(-c2ccc(N3CCNCC3)c(C(F)(F)F)c2)c1=O .
5.00 to 7.00

Enter pIC50 (test system PI3Kalpha (Homo sapiens, UniProt P42336)) for Cn1cc(-c2cc(-c3cnc4[nH]ccc4c3)ccn2)n(-c2ccc(N3CCOCC3)c(C(F)(F)F)c2)c1=O
5.00 to 7.00

Determine reported pIC50 for Cn1cc(-c2cc(-c3ccc(NS(C)(=O)=O)nc3)ccn2)n(-c2ccc(N3CCNCC3)c(C(F)(F)F)c2)c1=O ; test system: PI3Kalpha (Homo sapiens, UniProt P42336).
5.00 to 7.00

Provide the reported pIC50 (system: PI3Kalpha (Homo sapiens, UniProt P42336)) for COc1ccc(Cn2c(-c3cc(-c4cnc5[nH]ccc5c4)ccn3)cn(C)c2=O)cc1
< 5.00

Give PI3Kalpha (Homo sapiens, UniProt P42336) pIC50 for the following compound: Cc1cc2cc(-c3ccnc(-c4cn(C)c(=O)n4-c4cccc(Oc5ccccc5)c4)c3)cnc2[nH]1
5.00 to 7.00

Tell me pIC50 of Cn1cc(-c2cc(-c3ccc4[nH]ccc4c3)ccn2)n(-c2ccc(N3CCNCC3)c(C(F)(F)F)c2)c1=O when tested on PI3Kalpha (Homo sapiens, UniProt P42336).
5.00 to 7.00

Provide measured pIC50 on PI3Kalpha (Homo sapiens, UniProt P42336) for N#CCc1ccc(-n2c(-c3cc(-c4cnc5[nH]ccc5c4)ccn3)c[nH]c2=O)cc1 please.
5.00 to 7.00

Find the measured pIC50 of CN1CCN(c2ccc(-n3c(-c4cc(-c5cnc(N)c(C(F)(F)F)c5)ccn4)cn(C)c3=O)cc2C#N)CC1 with PI3Kalpha (Homo sapiens, UniProt P42336) as test system.
5.00 to 7.00

Report value only: pIC50, PI3Kalpha (Homo sapiens, UniProt P42336), Cn1cc(-c2cc(-c3ccc(N)cc3)ccn2)n(-c2ccc(N3CCNCC3)c(C(F)(F)F)c2)c1=O
5.00 to 7.00

Report pIC50 under test system PI3Kalpha (Homo sapiens, UniProt P42336) for COc1cccc(-n2c(-c3cc(-c4cnc5[nH]ccc5c4)ccn3)cn(C)c2=O)c1 .
5.00 to 7.00

Report value only: pIC50, PI3Kalpha (Homo sapiens, UniProt P42336), Cn1cc(-c2cc(-c3cnc4[nH]ccc4c3)ccn2)n(-c2cccc(Oc3ccccc3)c2)c1=O
5.00 to 7.00

Write down measured pIC50 (PI3Kalpha (Homo sapiens, UniProt P42336)) for this compound. Cn1cc(-c2cc(-c3cnc4ccccc4c3)ccn2)n(-c2ccc(C(C)(C)C(=O)O)cc2)c1=O
5.00 to 7.00

Tell me pIC50 of Cn1cc(-c2cc(-c3cccnc3)ccn2)n(-c2ccc(C(C)(C)C#N)cc2)c1=O when tested on PI3Kalpha (Homo sapiens, UniProt P42336).
5.00 to 7.00

// output pIC50; input Cn1cc(-c2cc(-c3cnc4[nH]c(C(F)(F)F)cc4c3)ccn2)n(-c2ccc(C(C)(C)C#N)cc2)c1=O ; system PI3Kalpha (Homo sapiens, UniProt P42336)
5.00 to 7.00

Lab note: PI3Kalpha (Homo sapiens, UniProt P42336) assay, enter pIC50 for COc1cc(-n2c(-c3cc(-c4cnc5[nH]ccc5c4)ccn3)cn(C)c2=O)ccc1Cl here
5.00 to 7.00

Report pIC50 from PI3Kalpha (Homo sapiens, UniProt P42336) testing of Cn1cc(-c2cc(-c3cnc4[nH]ccc4c3)ccn2)n(-c2ccc(C(C)(C)CN)cc2)c1=O
5.00 to 7.00

GET pIC50 | system: PI3Kalpha (Homo sapiens, UniProt P42336) | item: CN1CCN(c2ccc(-n3c(-c4cc(-c5cnc6[nH]ccc6c5)ccn4)cn(C)c3=O)cc2C#N)CC1
5.00 to 7.00

Lab note: record pIC50 of O=c1[nH]cc(-c2cc(-c3cnc4ccccc4c3)ccn2)n1-c1ccc(N2CCNCC2)c(C(F)(F)F)c1 tested on PI3Kalpha (Homo sapiens, UniProt P42336).
5.00 to 7.00

Give pIC50 for this entry on PI3Kalpha (Homo sapiens, UniProt P42336): CN1CCN(c2cc(C#N)cc(-n3c(-c4cc(-c5cnc6[nH]ccc6c5)ccn4)cn(C)c3=O)c2)CC1
5.00 to 7.00
